Target: Epidermal growth factor receptor (Homo sapiens)
Experiment: compounds binding epidermal growth factor receptor – biochemical, small-molecule microarray, 635 nm fluorescence, primary screen (AID 1104);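 note: score merges 667 nm emission intensity with spot signal to noise over triplicate slides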
Conditions: EGFR binding, higher = more signal
Entries and their composite z-score values follow.

Solved cases (3 shown):
Compound	Test system	composite z-score
O=C1C=C(c2ccccc2)C(=O)C2=C1CC([C@H]1Oc3ccccc3S(=O)(=O)N3CCC[C@@H]13)=CC2	Epidermal growth factor receptor (Homo sapiens)	0.0548
O=C1N(CCS(=O)(=O)c2ccccc2)c2ccccc2C[C@]12N=C(c1ccc(OCCCO)cc1)O[C@@H]2c1ccccc1	Epidermal growth factor receptor (Homo sapiens)	0.468
CC(C)C(O)C1C=CC2C(=O)NC(=O)C2N1Nc1ccccn1 (centres undefined)	Epidermal growth factor receptor (Homo sapiens)	-0.216

Report measured composite z-score; entry is CC(C)N1C(=O)C[C@@](C(=O)NCCN2CCOCC2)(c2ccc([N+](=O)[O-])cc2)[C@H]1c1ccc(CO)cc1
-1.12

----------
Assay: viability profiling in RPMI8226 myeloma cells – cell-based, resazurin fluorescence, basal, 24 h, PK04 Diversity Set, profiling panel (AID 1180);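 note: RPMI8826 multiple myeloma cell line at 5000 cells per well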
Settings: higher = more signal
Metric name: z-score
Please reply with the value in numeric form only.

Solved cases (4 shown):
Compound	Assay value
C=CCNC(=O)[C@@H]1[C@H]2C(=O)O[C@H](c3ccccc3)[C@H](c3ccccc3)N2[C@H](c2ccc(OCCO)cc2)[C@@]12C(=O)Nc1ccc(C#CC3(O)CCCCCC3)cc12	-2
COCCOC(=O)N1C(=O)[C@@]2(c3cc(C#Cc4ccc(OC)cc4)ccc31)[C@H](c1ccc(OCCO)cc1)N1[C@H](c3ccccc3)[C@H](c3ccccc3)OC(=O)[C@H]1[C@@H]2C(=O)NC[C@H](O)c1ccccc1	-0.508
CC(C)C[C@H]1NC(=O)C([C@@H](C)OCc2ccccc2)NC(=O)[C@@]23C(=O)N[C@@H](Cc4ccccc4)C2[C@H](C)[C@@]2(C)O[C@H]2C3/C=C/C/C=C\CNC1=O (stereo not given in full)	-0.0732
NC(=O)NCC#Cc1ccc2c(c1)[C@]1(C(=O)N2)[C@H](c2ccc(OCCO)cc2)N2[C@H](c3ccccc3)[C@H](c3ccccc3)OC(=O)[C@H]2[C@@H]1C(=O)NC[C@H](O)c1ccccc1	1.29

Please turn your attention to the following entry.
Report measured z-score; entry is NC(=O)NCC#Cc1ccc2c(c1)[C@]1(C(=O)N2)[C@H](c2ccc(OCCO)cc2)N2[C@H](c3ccccc3)[C@H](c3ccccc3)OC(=O)[C@H]2[C@@H]1C(=O)O
0.15

----------
Test: probe aDKK1 binding to arrayed compounds – biochemical, biotinylated probe, 635/667 nm fluorescence, primary screen (AID 1099);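 note: score merges 667nm spot fluorescence with signal to noise across triplicate slides; reference of the scale not given here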
Conditions: small-molecule microarray, higher = more signal
Label scheme for composite z-score: lower than 0.3 is false, 0.3 and above is true.

Compound	Classification
C=CCC(OC(C)=O)[C@@H]1[C@@H](N(Cc2ccc(-c3cccc(C(F)(F)F)c3)o2)C(=O)c2ccc(-c3ccccc3)cc2)c2cc(OCCCO)ccc2N1C(=O)c1ccc2ccccc2c1 (some centres not stated)	false
[N-]=[N+]=Nc1ccccc1C[C@@]1(C(=O)NCc2ccccc2)N=C(c2ccc(OCCCO)cc2)O[C@@H]1c1ccccc1N=[N+]=[N-]	true
C=CCNC(=O)[C@H]1[C@@H]2C(=O)O[C@@H](c3ccccc3)[C@@H](c3ccccc3)N2[C@@H](c2ccccc2OCCO)[C@]12C(=O)N(C(=O)OCCOC)c1ccc(C#Cc3ccc(OC)cc3)cc12	false

Exam item: decide whether the reported composite z-score for CC(C)C(=C=CC[C@H](O)c1ccccc1OCCO)C[C@H](O)COCc1ccccc1 is at least 0.3.
false

----------
Entries and their z-score values follow.
Experiment: compound effects on lung adenocarcinoma cell viability – A549, calcein-AM fluorescence, 48 h, basal, profiling panel (AID 1162)
Conditions: higher = more signal
Please reply with the value in numeric form only.

Compound	z-score
[N-]=[N+]=Nc1ccccc1C[C@@]1(C(=O)NCC(O)CO)N=C(c2ccc(OCCCO)cc2)O[C@@H]1c1ccccc1 (stereo partly drawn)	0.378
CO[C@H]1O[C@H](CO)[C@@H](OC(=O)Nc2ccc3c(c2)OCO3)[C@H](OC(=O)Nc2ccccc2-c2ccccc2)[C@H]1OC(=O)Nc1ccccc1-c1ccccc1	-3.97

Please turn your attention to the following entry.
Report measured z-score; entry is C=CCOC(=O)[C@H]1[C@@H]2C(=O)O[C@@H](c3ccccc3)[C@@H](c3ccccc3)N2[C@@H](c2ccc(OCCOC(=O)[C@H]3C[C@H]4C(=O)N[C@@H](CC(C)C)C(=O)N4[C@H]3c3ccc(O)cc3)cc2)[C@]12C(=O)Nc1ccccc12
0.0118

----------
Test: S. pombe growth modifiers, basal conditions – strain 972, OD600, 24 h, no modulator, primary screen (AID 1090);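 note: basal condition with compound alone and no growth modifier present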
Settings: S. pombe 972 growth, higher = more signal, called active from +8 up or from −8 down
Active and inactive are the calls of the source.
Metric name: z-score

Compound	z-score
O=C(NCc1ccc(F)cc1)[C@H]1C[C@H]2C(=O)N3CCC[C@H]3C(=O)N2[C@H]1c1ccc(O)cc1	-1.47 (inactive)
CC(C)=CCCC(C)=CC(O)C1C=CC2C(=O)NC(=O)C2N1Nc1ccc(Cl)cc1Cl (stereo not drawn)	-4.51 (inactive)
COc1ccc([Si](C)(C)[C@@H]2[C@@H](CC(=O)N3Cc4ccccc4C[C@H]3CO)O[C@]3(C(=O)N(Cc4ccc(N5CCOC5=O)cc4)c4ccccc43)[C@H]2C)cc1	0.693 (inactive)
COC(=O)[C@]1(Cc2ccccc2)N=C(c2ccc(OCCCO)cc2)O[C@@H]1c1ccccc1CN=[N+]=[N-]	0.237 (inactive)
COc1ccc([Si](C)(C)[C@@H]2[C@@H](CC(=O)N(CCO)Cc3ccccc3)O[C@]3(C(=O)N(Cc4ccc(N5C(=O)c6cccc7cccc5c67)cc4)c4ccccc43)[C@H]2C)cc1	0.27 (inactive)

Report measured z-score; entry is C=C(COC)/C(=C/C[C@@H](OC(C)=O)c1ccccc1OCCO)c1cnc2ccccc2c1
-0.614 (inactive)

Report measured z-score; entry is CC(C)NC(=O)[C@@H]1c2ccccc2C(=O)N(Cc2ccc(OC(F)(F)F)cc2)[C@H]1c1ccc(CO)cc1
-1.24 (inactive)

Report measured z-score; entry is C=C(CCCC)C(=O)CC[C@@H](OC(=O)c1ccccc1-c1ccccc1C(=O)O)c1ccccc1OCCO
-1.19 (inactive)

Report measured z-score; entry is COCCCNC(=O)[C@@]1(CCC(=O)OC(C)(C)C)COC(c2ccc(OCCCO)cc2)=N1
0.132 (inactive)

Report measured z-score; entry is C=CCC(OC(C)=O)[C@@H]1[C@@H](N(Cc2cccc3ccccc23)C(=O)c2ccc(-c3ccccc3)cc2)c2cc(OCCCO)ccc2N1C(=O)Cc1ccc2ccccc2c1 (stereo partly drawn)
0.072 (inactive)

Report measured z-score; entry is CC(C)(C)N1CC=CC23O[C@@H]4/C=C\CCCOC(=O)C4[C@H]2C(=O)N(CCCO)[C@@H]3C1=O (stereo partly drawn)
0.0214 (inactive)

Report measured z-score; entry is O=C1C2C=CC(C(O)c3cccs3)N(Nc3ccc([N+](=O)[O-])cc3)C2C(=O)N1c1ccccc1 (stereo not drawn)
1.14 (inactive)

Report measured z-score; entry is CCC(CC)C(O)C1C=CC2C(=O)N(c3ccccc3)C(=O)C2N1Nc1ccccc1F (stereo not drawn)
0.44 (inactive)

Report measured z-score; entry is COc1ccc([Si](C)(C)[C@H]2[C@H](CC(=O)N3Cc4ccccc4C[C@H]3CO)O[C@@]3(C(=O)N(C)c4c(Br)cc(C)cc43)[C@@H]2C)cc1
0.788 (inactive)

Report measured z-score; entry is COC(=O)[C@@]1(Cc2ccccc2)[C@H]2c3cc(C(=O)N(C)C)n(Cc4ccc(S(C)(=O)=O)cc4)c3C[C@H]2CN1C(=O)c1ccccc1
0.279 (inactive)

Report measured z-score; entry is COc1ccc(NN2C(C(O)c3ccc(I)cc3)C=CC3C(=O)N(C4CCCCC4)C(=O)C32)cc1 (stereo not drawn)
1.26 (inactive)

Report measured z-score; entry is O=C1NC(=O)C2C1C=CC(C(O)c1ccc([N+](=O)[O-])cc1)N2Nc1ccccn1 (stereo not drawn)
0.917 (inactive)

Report measured z-score; entry is COc1ccc(CCNC(=O)[C@@H]2c3ccccc3C(=O)N(Cc3ccccc3OC)[C@H]2c2ccc(CO)cc2)cc1
0.294 (inactive)

Report measured z-score; entry is CCOC(=O)C1=CC[C@@H](c2ccc(OC)cc2)N(S(=O)(=O)c2ccc(C)cc2)[C@H]1c1ccc(C)cc1
0.529 (inactive)

----------
Entries and their composite z-score values follow.
Test system: XIP peptide (Xip251-270)
Assay: compounds binding XIP fragment 251-270 – biochemical, small-molecule microarray, fluorescence 635/667 nm, 0.5 µg/mL protein, primary screen (AID 1183)
Conditions: fluorescence 635 nm, higher = more signal

Compound	Assay value
N#Cc1ccc(NN2C(C(O)C3CC=CCC3)C=CC3C(=O)N(c4ccccc4)C(=O)C32)cc1 (stereo unspecified)	0.678
COc1ccc(C#Cc2ccc3c(c2)[C@]2(C(=O)N3)[C@H](C(=O)O)[C@H]3C(=O)O[C@H](c4ccccc4)[C@H](c4ccccc4)N3[C@@H]2c2ccccc2OCCO)cc1	0.833
Cc1ccc(S[C@]2(C(=O)NCCCN(C)C)CC(=O)N(Cc3ccccc3C(F)(F)F)[C@@H]2c2ccc(CO)cc2I)cc1	0.82
COC(=O)c1cccc([C@H]2OC(=CC(=O)OC(C)C)C[C@@H](c3cccc(C(=O)OC)c3)O2)c1	0.713
O=C1c2ccccc2[C@@]2(Cc3ccccc3N(Cc3ccccc3)C2=O)[C@H](c2ccc(CO)cc2)N1Cc1ccccc1Cl	0.311

Please turn your attention to the following entry.
Report measured composite z-score; entry is C=CCOC(=O)[C@H]1[C@@H]2C(=O)O[C@@H](c3ccccc3)[C@@H](c3ccccc3)N2[C@@H](c2ccc(OCCOC(=O)[C@H]3C[C@H]4C(=O)N[C@@H](CC(C)C)C(=O)N4[C@H]3c3ccc(O)cc3)cc2)[C@]12C(=O)Nc1ccccc12
0.818
